Below: a set of entries, each annotated with reported pIC50.
ASSAYED_TARGET: T1, human OT7T175 (metastin receptor) (human, UniProt Q969F8 1-398)
T1 construct: expressed on CHO cells (hOT7T175-expressed CHO cells; hOT7T175/CHO); also called hOT7T175; h0T7T175
T1 sequence (Q969F8 whole entry L364H): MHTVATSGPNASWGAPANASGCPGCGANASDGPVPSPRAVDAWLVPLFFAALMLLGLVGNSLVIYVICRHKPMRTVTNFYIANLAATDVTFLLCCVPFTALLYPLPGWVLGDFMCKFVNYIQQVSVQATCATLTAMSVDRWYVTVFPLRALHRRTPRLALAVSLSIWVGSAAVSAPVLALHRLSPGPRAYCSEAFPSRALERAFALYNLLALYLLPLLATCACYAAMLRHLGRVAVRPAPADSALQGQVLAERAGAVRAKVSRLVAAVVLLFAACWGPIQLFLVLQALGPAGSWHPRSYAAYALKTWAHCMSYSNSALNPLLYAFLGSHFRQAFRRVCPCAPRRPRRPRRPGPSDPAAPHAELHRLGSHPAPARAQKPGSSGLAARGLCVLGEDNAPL
TEST_DESCRIPTION: FMAT competition with Cy-5-labeled metastin (40-54), hOT7T175-expressed CHO cells
pIC50: −log10 of the molar value. Square brackets hold non-standard residues; d marks the D form. Ends that are not written are not given here. * marks the point of attachment. Phe(4-CN) = N#Cc1ccc(C[C@H](N)C(=O)O)cc1; Arg(Me) = CNC(=N)NCCC[C@H](N)C(=O)O; d4Pal = N[C@H](Cc1ccncc1)C(=O)O; Cha = N[C@@H](CC1CCCCC1)C(=O)O; amidino = N=C(N)*; azaGly = NNC(=O)O
ASSAY_METRIC: pIC50

[
  {
    "BINDER": "YNWNSFGLRW-NH2 [Compound No. 134: [Trp10]MS10]",
    "NUMERIC_RESULT": 6.96
  },
  {
    "BINDER": "YNWNSFGLRX (Nal(1)10; C-terminal amide) [Compound No. 133: [Nal(1)10]MS10]",
    "NUMERIC_RESULT": 6.48
  },
  {
    "BINDER": "amidino-WNSF[azaGly]L[Arg(Me)]F-NH2 (SMILES CNC(=N)NCCC[C@H](NC(=O)[C@H](CC(C)C)NC(=O)NNC(=O)[C@H](Cc1ccccc1)NC(=O)[C@H](CO)NC(=O)[C@H](CC(N)=O)NC(=O)[C@H](Cc1c[nH]c2ccccc12)NC(=N)N)C(=O)N[C@@H](Cc1ccccc1)C(N)=O) [Compound No. 273: des(1-2)-Amidino-[AzaGly7,Arg(Me)9]MS10]",
    "NUMERIC_RESULT": 6.52
  },
  {
    "BINDER": "[dY]N[Cha]NS[Cha]GL[Arg(Me)]W-NH2 (N-terminus assumed; SMILES CNC(=N)NCCC[C@H](NC(=O)[C@H](CC(C)C)NC(=O)CNC(=O)[C@H](CC1CCCCC1)NC(=O)[C@H](CO)NC(=O)[C@H](CC(N)=O)NC(=O)[C@H](CC1CCCCC1)NC(=O)[C@H](CC(N)=O)NC(=O)[C@H](N)Cc1ccc(O)cc1)C(=O)N[C@@H](Cc1c[nH]c2ccccc12)C(N)=O) [Compound No. 182: [D-Tyr1,Cha3,6,Arg(Me)9,Trp10]MS10]",
    "NUMERIC_RESULT": 7.01
  },
  {
    "BINDER": "[dY]N[d4Pal]NSF[azaGly]L[Arg(Me)]F-NH2 [Compound No. 302: [D-Tyr1,D-Pya(4) 3,AzaGly7,Arg(Me)9]MS10]",
    "NUMERIC_RESULT": 8.11
  },
  {
    "BINDER": "[dY]NWNSFGL[Arg(Me)]F-NH2 (also: Phe6-Gly7 thioamide (CSNH), also called [6y7,CSNH,D-Tyr1,Arg(Me)9]MS10) [Compound No. 296: [6Ψ7,CSNH,D-Tyr1,Arg(Me)9]MS10]",
    "NUMERIC_RESULT": 7.85
  },
  {
    "BINDER": "YNWNYFGLRF-NH2 [Compound No. 23: [Tyr5]MS10]",
    "NUMERIC_RESULT": 6.40
  },
  {
    "BINDER": "YN[dW]NSFGL[Arg(Me)]F-NH2 [Compound No. 143: [D-Trp3,Arg(Me)9]MS10]",
    "NUMERIC_RESULT": 8.11
  },
  {
    "BINDER": "YNWNSFGLR[Phe(4-CN)]-NH2 [Compound No. 77: [Phe(4CN)10]MS10]",
    "NUMERIC_RESULT": 8.13
  },
  {
    "BINDER": "[dY]NPNSF[azaGly]L[Arg(Me)]F-NH2 [Compound No. 253: [D-Tyr1,Pro3,AzaGly7,Arg(Me)9]MS10]",
    "NUMERIC_RESULT": 7.57
  }
]
